# System: K562
# TEST NAME: NCI tumour cell line growth inhibition, 48 h
Activity calls are given as the source filed them. Cut-off read from the data, not from the text of the source: active = GI50 up to about 1.1 µM and inactive = higher.
Answer each item with its documented GI50.

Give GI50 for each of the items listed below.
1. O=c1cc(-c2ccccc2)[nH]c2cc(Cl)cc(Cl)c12
2. CC1CC(=O)NC2CC1C2(C)C (centres undefined)
3. O=C(/C=C/c1c(O)ccc2ccccc12)c1cccc(O)c1
4. Cc1cc(Cl)ccc1NC1=NC(=O)C(CC(=O)Nc2ccc(Cl)cc2Cl)S1 (centres undefined)
5. COc1ccc(N2C(=O)CC(=O)N(NC(=O)C(C)Oc3ccccc3C)C2=S)cc1 (centres undefined)
6. C/C(=C(/C)c1cc[n+](C)cc1)c1cc[n+](C)cc1

Resp:
1. 7.31 µM (inactive)
2. > 100 µM (inactive)
3. 44.3 µM (inactive)
4. > 100 µM (inactive)
5. > 100 µM (inactive)
6. 54.8 µM (inactive)

Quick one: give me GI50 for each item below, same order please.
1. CC(=O)OC[C@@]12C[C@H]3C(=O)C(C)(C)C[C@H]3[C@]1(C)[C@@H](OC(C)=O)[C@]1(O)[C@H]([C@@H](OC(=O)c3ccccc3)[C@@H](C)[C@H]1OC(C)=O)[C@H]2OC(C)=O
2. [N-]=[N+]=C(C(=O)C(=[N+]=[N-])C(=O)c1ccccc1)C(=O)c1ccccc1
3. O=C1c2cc([N+](=O)[O-])ccc2-c2cccc(F)c21

Resp:
6.87 µM (inactive)
> 100 µM (inactive)
43 µM (inactive)

----------
Can you tell me GI50 for the items I'm about to list?
# System: NCI-H226
# TEST NAME: NCI tumour cell line growth inhibition, 48 h
The source made the active and inactive calls. Cut-off read from the data, not from the text of the source: active = GI50 up to about 1.1 µM and inactive = higher.

Here are 5 compounds together with their reported answers.
COMPOUND	RESULT
CC(C)(C)OC(=O)N(CCCN)CCCCN	> 100 µM (inactive)
Cc1cc2c3c(c1)S(=O)(=O)c1cc(Cl)ccc1N3CCC2	> 100 µM (inactive)
O=c1[nH]nc(Cc2ccc(Cl)cc2)n1/N=C\c1ccc(/C=N/n2c(Cc3ccc(Cl)cc3)n[nH]c2=O)cc1	96.6 µM (inactive)
COC(=O)CC1C=CC(C)(OC)OO1 (stereo unspecified)	> 100 µM (inactive)
CC(O)C(O)C(N)CC=O (stereo unspecified)	> 500 µM (inactive)

Each of the following entries comes with a recorded value; kindly state GI50 for each.
1. [O-][Cl+3]([O-])([O-])[O-].c1ccc(-c2[o+]c(-c3ccccc3)c(-c3ccccc3)c(-c3ccccc3)c2-c2ccccc2)cc1
2. Cc1ccc(/N=C/C=C(\Nc2ccc(C)cc2)c2ccc3ccccc3c2)cc1
3. CC1=C(C)C2(C#N)C(=O)N3C(=NC(c4ccccc4)NC3c3ccccc3)C2(C#N)C(c2ccccc2)N1 (stereo unspecified)
4. O=C1c2cc([N+](=O)[O-])ccc2-c2cccc(F)c21

Resp:
> 100 µM (inactive)
1.4 µM (inactive)
> 100 µM (inactive)
96.4 µM (inactive)

Dear colleague, could you please provide GI50 for the compounds listed below?
1. Cc1ccc(/C=C2\CN(C)CC3C(c4ccc(C)cc4)=C(C#N)C(=O)NC23)cc1 (stereo unspecified)
2. COc1ccc(OC)c(CNc2ccc(C(=O)O)cc2)c1
3. O=C1C=C(Nc2cc(Cl)ccc2Cl)c2ccccc2C1=O
4. O=C1C=C(Nc2ccc(Cl)cc2Cl)c2ccccc2C1=O

Resp:
1: > 50 µM (inactive); 2: > 100 µM (inactive); 3: 23.9 µM (inactive); 4: 28.5 µM (inactive)

Please go through the list and note GI50 for each compound.
1. C=CCN1C(N)=C(C(N)=O)S/C1=C1/SC(=S)N(c2ccc(C)cc2)C1=O
2. C=CC/N=C1\N=C(C)C(C(=O)OCC)S1 (stereo unspecified)
3. c1ccc2c(c1)[nH]c1nc3cc(-c4ccc5nc6c(nc5c4)[nH]c4ccccc46)ccc3nc12
4. C/C=C/[C@@H]1[C@H]2C(=O)[C@]3(Cl)[C@@H](/C=C/C)[C@@H]3C(=O)[C@@]12Cl

Resp:
1. > 100 µM (inactive)
2. > 100 µM (inactive)
3. > 100 µM (inactive)
4. > 100 µM (inactive)

Hi, could you look up GI50 for each item in my list?
1. CC(C)(C)c1cc(C(=O)/C=C/c2ccc(O)c(O)c2O)cc(C(C)(C)C)c1O
2. N[C@@H](Cc1ccc2oc3cc(=O)c4ccccc4c-3nc2c1)C(=O)O
3. O=c1c2c(sc3ccccc13)NCN(CCc1ccccc1)C2
4. Cn1cc(C(=O)/C(Cl)=C(\Cl)C(=O)O)c2ccccc21

Resp:
["14.1 µM (inactive)", "34 µM (inactive)", "32 µM (inactive)", "> 100 µM (inactive)"]

----------
# Tested on: HL-60
# TEST NAME: NCI tumour cell line growth inhibition, 48 h
Activity calls are given as the source filed them. Cut-off read from the data, not from the text of the source: active = GI50 up to about 1.1 µM and inactive = higher.
MEASUREMENT TYPE: GI50

COMPOUND	GI50
COc1ccc2c(c1)N=C1CSC(c3cc([N+](=O)[O-])ccc3Cl)N1C2 (stereo not given)	22.5 µM (inactive)
COc1cc2c(cc1OC)C(Cl)C(c1ccc(F)cc1)=C2Cl (stereo not given)	5.68 µM (inactive)
O=C1/C(=C/c2ccccc2)CCC/C1=C\c1ccc(O)c(CN2CCCCC2)c1	3.49 µM (inactive)
COC(=O)c1c(O)ccc2c1c1c(n2-c2ccc(OC)cc2)C(=O)c2ccccc2C1=O	> 100 µM (inactive)
Nc1nc(Cl)cc(NCC2(CO)CC(Cc3ccccc3)C2)n1 (stereo not given)	4.71 µM (inactive)

Lab note: each compound below needs its GI50 filled in.
1. c1ccc2c(c1)[nH]c1nc3cc(-c4ccc5nc6c(nc5c4)[nH]c4ccccc46)ccc3nc12
2. CC(C)OP(=O)(OC(C)C)/C(=N/Nc1ccc([N+](=O)[O-])cc1)NCCO

Resp:
["20.9 µM (inactive)", "42.7 µM (inactive)"]

----------
# Tested on: PC-3
# TEST NAME: NCI tumour cell line growth inhibition, 48 h
Active and inactive are the calls of the source. No stated cut-off is given here; in the data, active = GI50 up to about 1.1 µM and inactive = higher.
Consider the following compounds; for each one, report its GI50.

Some compounds with recorded GI50:
COMPOUND	GI50
Cc1cc(C(F)(F)F)cc(-n2nc(NS(=O)(=O)c3cc(C)c(Cl)cc3S)nc2N)n1	47.4 µM (inactive)
COC(=O)[C@@H]1C[C@H]([Se]c2ccccc2)CN1C(=O)OCc1ccccc1	30.3 µM (inactive)
CC(CO)(Nc1ccc([N+](=O)[O-])cc1[N+](=O)[O-])C(=O)O (stereo not given)	64.6 µM (inactive)
O=C1/C(=C/c2ccccc2)CCC/C1=C\c1ccc(O)c(CN2CCCCC2)c1	4.56 µM (inactive)
COc1cc(CCNC2=CC(=O)c3cccnc3C2=O)ccc1O	2.76 µM (inactive)
CC(=O)Nc1cc2c(cc1O)CC[C@@H]1[C@@H]2CC[C@]2(C)[C@@H](O)CC[C@@H]12	35.5 µM (inactive)

Report GI50 for every entry below.
1. O=C1c2ccccc2C(=O)N1[C@@H](Cc1ccccc1)C(=O)n1cccc1CO
2. O=C(O)c1nc2ccc(C(F)(F)F)cc2nc1NCc1ccc(F)cc1

Resp:
1. > 100 µM (inactive)
2. 26.5 µM (inactive)

Give GI50 for each of the items listed below.
1. CCOC1CCC2C(CCC(/C=C/c3ccc(O)c4ncccc34)N2C)C1 (stereo not given)
2. COC(=O)c1ccccc1C1CN=NC12Cc1ccc3ccccc3c1C2=O (stereo not given)

Resp:
1. 8.75 µM (inactive)
2. > 100 µM (inactive)

----------
# System: SK-MEL-5
# TEST NAME: NCI tumour cell line growth inhibition, 48 h
Activity calls are given as the source filed them. Rule as the data show it: active = GI50 up to about 1.1 µM and inactive = higher.
MEASUREMENT TYPE: GI50

COMPOUND	MEASUREMENT TYPE	RESULT
C[N+]12C=CC=C1C(N1CCCC1)c1scc(-c3ccc(Br)cc3)c12 (stereo unspecified)	GI50	4.68 µM (inactive)
C#CC(O)/C=C/C(O)CCCC(O)CC#CC(O)C#CC(O)CCCC(O)/C=C/CCCC(=O)CCCCCCCCCCCCCCCC(O)C(O)C#CC(=O)O (stereo unspecified)	GI50	> 50 µM (inactive)
COC(=O)CC1C=CC(C)(OC)OO1 (stereo unspecified)	GI50	> 100 µM (inactive)

The following compounds each have a reported value; give each one's GI50.
1. O=c1cc(NNc2cccc3ccccc23)[nH]c(=O)[nH]1
2. O=C1C[C@H](Sc2ccccc2)C2(OCCO2)[C@H]2ON3CCC[C@@H]3[C@@H]12
3. COc1cccc(N/C(C)=C2/CCOC2=O)c1
4. CC1(C)CC(/C=C2/OC(=O)c3ccccc32)=C(C#N)C(=O)O1
5. O=C1c2c(nc3ccccc3c2-c2ccccc2)CN1Nc1ccccn1
6. COc1ccc(CNc2nc3cc(C(F)(F)F)ccc3nc2C)cc1OC
7. CCOC1CCC2C(CCC(/C=C/c3ccc(O)c4ncccc34)N2C)C1 (stereo unspecified)
8. Cc1ccc(C(CCO)CCO)nc1

Resp:
["15.8 µM (inactive)", "7.23 µM (inactive)", "> 10 µM (inactive)", "> 100 µM (inactive)", "74.5 µM (inactive)", "17.3 µM (inactive)", "19.7 µM (inactive)", "> 100 µM (inactive)"]
